# logP per entry
PROTOCOL: Partition coefficient (logP)
Format: physicochemical
CONDITION DESCRIPTION: octanol/water; read-out: logP
Output: the number by itself.

>  <CPD SMILES>
CN1CC2CN(C)CC(C1)C2(C)C

>  <logP>
1.61

$$$$
>  <CPD SMILES>
C=CCCN1CC2CN(CCC=C)CC(C1)C21CCCCC1

>  <logP>
4.49

$$$$
>  <CPD SMILES>
CC(C)N1CC2CN(C(C)C)CC(C1)C2(C)C

>  <logP>
2.48

$$$$
>  <CPD SMILES>
CCCCN1CC2CN(CCCC)CC(C1)C21CCC1

>  <logP>
4.24

$$$$
>  <CPD SMILES>
CCCCCCN1CC2CN(C)CC(C1)C2(CC)CC

>  <logP>
4.88

$$$$

Read the next record carefully.
Recorded result, C1CCC(CN2CC3CN(CC4CCCCC4)CC(C2)C32CCCCC2)CC1 , logP: 7.43

Data origin: ChEMBL document CHEMBL1131456
